Value source: BindingDB's records for doi:10.1016/j.bmcl.2010.10.034

Target: cAMP-dependent protein kinase catalytic subunit beta (Homo sapiens) (UniProt P22694)
Test: Inhibition of PKAbeta
MEASURED ENDPOINT: IC50

Can you share its IC50? I mean this compound: `Cc1ccc(C(=O)Nc2ccon2)cc1NC(=O)c1cnn(-c2ccccc2F)c1N` > 40 µM
